Would you kindly list growth for each of these compounds?
Tested on: NCI-H322M lung
Assay: NCI-60 one-dose screen, 48 h (100 = growth as untreated, 0 = no growth, -100 = all killed)
Details: 10 µM unless noted
The panel holds about 83,000 compounds, 20% with a hit somewhere; the sample as a whole holds those more often.
Express it in %; write the number only.

Ask | Param item = `Cc1c(-c2ccc(C3CCCCC3)cc2)nc2ccc(F)cc2c1C(=O)O` ; retrieve measured growth.
Reply | 56.4

Ask | Param item = `Clc1ccc(-c2noc(/C=C\c3ccccc3)n2)cc1` ; retrieve measured growth.
Reply | 87.1

Ask | Param item = `Cc1[nH]n(-c2ccccc2)c(=O)c1C=NC(=S)C(N)=S` ; retrieve measured growth.
Reply | 110

Ask | Param item = `Clc1ccc(/C=C/c2ccccn2)cc1` ; retrieve measured growth.
Reply | 107

Ask | Param item = `S=C=Nc1ccc2ccccc2c1` ; retrieve measured growth.
Reply | 109

Ask | Param item = CC1CCC(C(C)(C)[N+](C)(C)C)CC1 (configuration not stated) ; retrieve measured growth.
Reply | 106

Ask | Param item = CC12CCC3c4ccc(O)cc4CCC3C1CCC2=O (configuration not stated) ; retrieve measured growth.
Reply | 113

Ask | Param item = `Cc1ccc(NC(=O)c2ccccc2Cl)cc1` ; retrieve measured growth.
Reply | 113

Ask | Param item = `Cc1ccc2nc(-c3ccc(N=Cc4ccccc4O)cc3)sc2c1` ; retrieve measured growth.
Reply | 82.8

Ask | Param item = `CCCCOC(=O)c1ccccc1O` ; retrieve measured growth.
Reply | 112

Ask | Param item = `c1ccc(Nc2ccccn2)nc1` ; retrieve measured growth.
Reply | 100

Ask | Param item = `Cc1cccc2ccccc12` ; retrieve measured growth.
Reply | 103

Ask | Param item = `O=C(Nc1c(Cl)cc(Cl)cc1Cl)ON=C1CCCCC1` ; retrieve measured growth.
Reply | 106

Ask | Param item = `Cc1ccc2nc(N)nnc2c1` ; retrieve measured growth.
Reply | 112

Ask | Param item = `CCC(=O)Oc1ccc2ccccc2c1` ; retrieve measured growth.
Reply | 103

Ask | Param item = `COc1cccc(N=CNc2cccc(OC)c2)c1` ; retrieve measured growth.
Reply | 96

Ask | Param item = `C/C(=N\Nc1ccc([N+](=O)[O-])cc1[N+](=O)[O-])c1ccc(Br)cc1` ; retrieve measured growth.
Reply | 106

Ask | Param item = C=CC1=NC(C)(C)CC(C)O1 (configuration not stated) ; retrieve measured growth.
Reply | 108

Ask | Param item = `Nc1ncnc(Nc2ccc(C(F)(F)F)cc2)n1` ; retrieve measured growth.
Reply | 102

Ask | Param item = `CC(=O)c1cccc(N(C)S(=O)(=O)c2ccc(C)cc2)c1` ; retrieve measured growth.
Reply | 90.4

Ask | Param item = `Cc1ccc(N2C(=O)c3cccc4c(N)c(S(=O)(=O)O)cc(c34)C2=O)cc1` ; retrieve measured growth.
Reply | 114

Ask | Param item = `O=[N+]([O-])c1ccc2[nH]c(=S)n(/C=C(/c3ccc(Cl)cc3Cl)S(=O)(=O)Cc3ccc(Cl)cc3Cl)c2c1` ; retrieve measured growth.
Reply | 100

Ask | Param item = `CC(=O)Oc1c(Cl)cccc1-c1ccccc1` ; retrieve measured growth.
Reply | 92.7

Ask | Param item = CC(c1ccccc1)N(C)C (configuration not stated) ; retrieve measured growth.
Reply | 92.3

Ask | Param item = CC(=O)NC(CCc1ccc(Cl)c(Cl)c1)c1cccc(O)c(=O)c1 (configuration not stated) ; retrieve measured growth.
Reply | 5

Ask | Param item = `S=c1nc2[nH]c3ccccc3c2n[nH]1` ; retrieve measured growth.
Reply | 98.9

Ask | Param item = `OCCc1ccc(Cl)cc1` ; retrieve measured growth.
Reply | 101
